# credit: patent US20150210738

target: pVI (precursor to protein VI) (Human adenovirus 2, UniProt P03274 P03274:1-250); assay: FP; 0.02 M NaCl, pH 8; 155, 328, 449, 1044 nM at 0.03, 0.04, 0.05, 0.06 M NaCl; 2.9 ion pairs; conditions: label: 5'-fluorescein (unlabeled with Cy3B-labeled protein)
Sequence (P03274 whole entry, one chain of several): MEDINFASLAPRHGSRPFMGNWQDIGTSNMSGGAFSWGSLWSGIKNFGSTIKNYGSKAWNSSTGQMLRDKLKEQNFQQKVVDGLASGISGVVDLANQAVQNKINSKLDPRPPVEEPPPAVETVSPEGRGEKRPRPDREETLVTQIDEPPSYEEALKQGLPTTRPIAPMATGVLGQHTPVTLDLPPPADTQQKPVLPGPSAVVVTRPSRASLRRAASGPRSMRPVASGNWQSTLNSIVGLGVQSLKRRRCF
attribute measured: Kd

> print(dat)
                                     binder  observed
1  12-mer dsDNA (dsDNA) DNA 1: GACGACTAGGAT DNA 2: ATCCTAGTCGTC     55 nM
